assay: Pharmacokinetics of DTX in mice after oral administration; type: in vivo; conditions: male, Kunming, mouse, plasma (systemic circulation), 20 mg/kg, oral 20 mg/kg DTX
QUANTITY MEASURED: Tmax (min)

STRUCTURE	OBSERVED VALUE
CC(=O)O[C@@]12CO[C@@H]1C[C@H](O)[C@@]1(C)C(=O)[C@H](O)C3=C(C)[C@@H](OC(=O)[C@H](O)[C@@H](NC(=O)OC(C)(C)C)c4ccccc4)C[C@@](O)([C@@H](OC(=O)c4ccccc4)[C@H]21)C3(C)C	30
